For each entry below, report its IC50 value.
Target: IL-17A/A (Homo sapiens, UniProt Q16552)
Construct: purchased Genscript Z03228
Experiment: IL-17A/A HEK-Blue Cell Assay
Format: cell-based
Settings: HEK-Blue IL-17A reporter cell line, SEAP readout at A630, 20 hours incubation with IL-17A/A; top concentration 10 uM, 1 uM or 0.3 uM; read-out: IL-17A/A inhibition (pIC50) (converted)
Protocol: The HEK-Blue IL-17A reporter cell line (Fisher #NC1408637) was used for cell-based IL-17A/A inhibition assays. Cells were grown and prepared for assays according to the manufacturer's instructions. […] Media from the cells is then added to a development reagent (Quanti-Blue Substrate, Fisher #NC9711613), and read at A630. […]

- COMPOUND: "CCC(=O)N[C@@H](C(=O)N1CCN(C)CC1)[C@@H](C)c1ccc(NC(=O)[C@@H](NC(=O)C(F)(F)c2ccc(OC)nc2)C2CCCCCC2)cc1 [Compound 222]"
  IC50: "10 to 100 nM"
- COMPOUND: "CCC(=O)N[C@@H](C(=O)N1CCN(C)CC1)[C@@H](C)c1ccc(NC(=O)[C@@H](NC(=O)c2nonc2CC)[C@H]2CC[C@H](C)CC2)c(F)c1 [Compound 278]"
  IC50: "< 10 nM"
- COMPOUND: "CCC(=O)N[C@@H](C(=O)N1CCN(C)CC1)[C@@H](C)c1ccc(NC(=O)[C@@H](NC(=O)c2ccnn2C(C)C)C2CCCCC2)c(F)c1 [Compound 256]"
  IC50: "10 to 100 nM"
- COMPOUND: "CCC(=O)N[C@H](Cc1ccc(NC(=O)[C@@H](NC(=O)c2ccnn2CC)C2CCCCC2)c(F)c1)C(=O)N1CC(N(C)C)C1 [Compound 667]"
  IC50: "100 to 10000 nM"
- COMPOUND: "CCC(=O)N[C@@H](C(=O)N1CCN(C)CC1)[C@@H](C)c1ccc(NC(=O)[C@@H](NC(=O)c2cccn2CC)C2CCCCC2)c(F)c1 [Compound 254]"
  IC50: "10 to 100 nM"
- COMPOUND: "CCn1nccc1C(=O)N[C@H](C(=O)Nc1ccc([C@H](C)[C@@H](NC(=O)[C@H](C)CC(=O)O)C(=O)N2CCN(C)CC2)cc1F)[C@H]1CC[C@H](C)CC1 [Compound 474]"
  IC50: "10 to 100 nM"

I have 2 compounds here; please give me IC50 for each one.
1. CCC(=O)N[C@H](Cc1ccc(NC(=O)[C@@H](NC(=O)c2conc2CC)[C@H]2CC[C@H](C)CC2)c(F)c1)C(=O)N1CCN(C)CC1 [Compound 630]
2. CCn1nccc1C(=O)N[C@H](C(=O)Nc1ccc([C@H](C)[C@@H](NC(=O)NC2CC2)C(=O)N2CCN(C)CC2)cc1F)C1CCCCC1 [Compound 314]

Reply:
["100 to 10000 nM", "10 to 100 nM"]

Quick one: give me IC50 for each item below, same order please.
1. CCn1nccc1C(=O)N[C@H](C(=O)Nc1ccc([C@H](C)[C@@H](NC(=O)c2ccnn2C2CCOCC2)C(=O)N2CCC(C)(O)CC2)cc1F)[C@H]1CC[C@H](C)CC1 [Compound 417]
2. CCC(=O)N[C@@H](C(=O)N1CCN(C)CC1)[C@@H](C)c1ccc(NC(=O)C(NC(=O)c2ccnn2CC)C(CC)c2ccc(Cl)cc2)c(F)c1 (single isomer, unassigned) [Compound 562]
3. CCC(=O)N[C@@H](C(=O)N1CCN(C)CC1)[C@@H](C)c1ccc(NC(=O)[C@@H](NC(=O)c2ccnn2CC)C2CCC(C)(C)CC2)c(F)c1 [Compound 296]
4. CCC(=O)N[C@H](Cc1ccc(NC(=O)[C@@H](NC(=O)C(F)(F)c2ccccc2)C2CCCCC2)c(F)c1)C(=O)N1CCN(C)CC1 [Compound 204]

Reply:
["< 10 nM", "10 to 100 nM", "10 to 100 nM", "100 to 10000 nM"]

* * *

Target: IL-17A/A (Homo sapiens, UniProt Q16552)
Construct: purchased Genscript Z03228
Sequence (Q16552 24-155): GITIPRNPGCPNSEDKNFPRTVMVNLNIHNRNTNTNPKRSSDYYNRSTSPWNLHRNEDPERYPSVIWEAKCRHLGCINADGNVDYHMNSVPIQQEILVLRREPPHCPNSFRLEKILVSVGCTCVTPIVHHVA
Test: IL-17A/A HEK-Blue Cell Assay
Format: cell-based
Conditions: HEK-Blue IL-17A reporter cell line, SEAP readout at A630, 20 hours incubation with IL-17A/A; top concentration 10 uM, 1 uM or 0.3 uM

- COMPOUND: "CCC(=O)N[C@@H](C(=O)N1CCN(C(C)(C)O)CC1)[C@@H](C)c1ccc(NC(=O)[C@@H](NC(=O)c2ccnn2CC)[C@H]2CC[C@H](C)CC2)c(F)c1 [Compound 424]"
  IL-17A/A inhibition (pIC50): "B (8>B≥7 as B)"
- COMPOUND: "CCn1nccc1C(=O)N[C@H](C(=O)Nc1ccc([C@H](C)[C@@H](NC(=O)c2cnsc2)C(=O)N2CCN(C)CC2)cc1F)[C@H]1CC[C@H](C)CC1 [Compound 487]"
  IL-17A/A inhibition (pIC50): "B (8>B≥7 as B)"

* * *

Molecular target: IL-17A/A (Homo sapiens)
Construct: purchased Genscript Z03228
Assay: IL-17A/A HEK-Blue Cell Assay
Assay type: cell-based
Conditions: HEK-Blue IL-17A reporter cell line, SEAP readout at A630, 20 hours incubation with IL-17A/A; top concentration 10 uM, 1 uM or 0.3 uM; read-out: IL-17A/A inhibition (pIC50) (converted)
MEASURED METRIC: IC50

Some solved entries appear below for comparison.
- COMPOUND STRUCTURE: "CCC(=O)N[C@@H](C(=O)N1CCC(CC(=O)OC(C)(C)C)CC1)[C@@H](C)c1ccc(NC(=O)[C@@H](NC(=O)c2ccnn2CC)[C@H]2CC[C@H](C)CC2)c(F)c1"
  TARGET SYSTEM: "IL-17A/A (Homo sapiens)"
  VALUE MEASURED: "0.01 to 0.1 µM"
- COMPOUND STRUCTURE: "CCC(=O)N[C@@H](C(=O)N1CCN(C)CC1)[C@@H](C)c1ccc(NC(=O)[C@@H](NC(=O)C(F)(F)c2cccc(C#N)c2)C2CCC(F)(F)CC2)c(F)c1"
  TARGET SYSTEM: "IL-17A/A (Homo sapiens)"
  VALUE MEASURED: "< 0.01 µM"
- COMPOUND STRUCTURE: "CCc1nonc1C(=O)N[C@H](C(=O)Nc1ccc([C@H](C)[C@@H](NC(=O)C(F)(F)CC)C(=O)N2CCN(C)[C@H](C)C2)cc1F)[C@H]1CC[C@H](C)CC1"
  TARGET SYSTEM: "IL-17A/A (Homo sapiens)"
  VALUE MEASURED: "< 0.01 µM"
- COMPOUND STRUCTURE: "CCc1nonc1C(=O)N[C@H](C(=O)Nc1ccc([C@H](C)[C@@H](NC(=O)c2ccnc3c2OCCO3)C(=O)N2CCN(C)CC2)cc1F)[C@H]1CC[C@H](C)CC1"
  TARGET SYSTEM: "IL-17A/A (Homo sapiens)"
  VALUE MEASURED: "0.01 to 0.1 µM"

Turning to the following compound.
Ask: Can you look up IC50 on IL-17A/A (Homo sapiens) for "CCC(=O)N[C@@H](C(=O)N1CCC(C)(O)CC1)[C@@H](C)c1ccc(NC(=O)[C@@H](NC(=O)C(F)(F)c2cccc(C#N)c2)C2CCCCCC2)c(F)c1" ?
Reply: < 0.01 µM

* * *

Please provide measured IC50 for the entries that follow.
Biological target: IL-17A/A (Homo sapiens, UniProt Q16552)
Construct: purchased Genscript Z03228
Assay: IL-17A/A HEK-Blue Cell Assay
Assay type: cell-based
Conditions: HEK-Blue IL-17A reporter cell line, SEAP readout at A630, 20 hours incubation with IL-17A/A; top concentration 10 uM, 1 uM or 0.3 uM; read-out: IL-17A/A inhibition (pIC50) (converted)

Batch: IC50 for all items listed.
1. C[C@@H](c1ccc(NC(=O)[C@@H](NC(=O)C(F)(F)c2cccc(C#N)c2)C2CCCCCC2)c(F)c1)[C@@H](NC(=O)c1cnns1)C(=O)N1CCN(C)CC1
2. CCC(=O)N[C@@H](C(=O)N1CCN(C)CC1)[C@@H](C)c1ccc(NC(=O)[C@@H](NC(=O)c2coc3c2COC3)C2CCCCCC2)c(F)c1
3. COc1ccc(C(F)(F)C(=O)N[C@H](C(=O)Nc2ccc([C@H](C)[C@@H](NC(=O)c3cnns3)C(=O)N3CCN(C)CC3)cc2F)[C@H]2CC[C@H](C)CC2)cn1
4. CCc1nonc1C(=O)N[C@H](C(=O)Nc1ccc([C@H](C)[C@@H](NC(=O)[C@@H]2CCCO2)C(=O)N2CCN(C)CC2)cc1F)[C@H]1CC[C@H](C)CC1
5. CCC(=O)N[C@@H](C(=O)N1CCN(C)C[C@H]1C)[C@@H](C)c1ccc(NC(=O)[C@@H](NC(=O)c2nonc2CC)[C@H]2CC[C@H](C)CC2)c(F)c1
6. CCc1nonc1C(=O)N[C@H](C(=O)Nc1ccc([C@H](C)C(NC(=O)C(C)F)C(=O)N2CCN(C)[C@@H](C)C2)cc1F)[C@H]1CC[C@H](C)CC1 (single isomer, unassigned) [Compound 595]
7. CCC(=O)N[C@@H](C(=O)N1CCN(C)CC1)[C@@H](C)c1ccc(NC(=O)C(NC(=O)c2ccnn2C(C)C)C(C)c2ccc(F)cc2)c(F)c1 (some centres unmarked)
8. CCC(=O)N[C@@H](C(=O)N1CCN(CC)[C@H](C)C1)[C@@H](C)c1ccc(NC(=O)[C@@H](NC(=O)c2ccnn2CC)[C@H]2CC[C@H](C)CC2)c(F)c1

Reply:
1: < 10 nM; 2: < 10 nM; 3: < 10 nM; 4: 10 to 100 nM; 5: < 10 nM; 6: 10 to 100 nM; 7: 10 to 100 nM; 8: < 10 nM
